biological target: GluN1-1a WT/GluN2B Q110A (Rattus norvegicus, UniProt P35439+Q00960, Q110A); test: cell-based
Sequence (Q00960 27-1482 Q110A, other chains not shown): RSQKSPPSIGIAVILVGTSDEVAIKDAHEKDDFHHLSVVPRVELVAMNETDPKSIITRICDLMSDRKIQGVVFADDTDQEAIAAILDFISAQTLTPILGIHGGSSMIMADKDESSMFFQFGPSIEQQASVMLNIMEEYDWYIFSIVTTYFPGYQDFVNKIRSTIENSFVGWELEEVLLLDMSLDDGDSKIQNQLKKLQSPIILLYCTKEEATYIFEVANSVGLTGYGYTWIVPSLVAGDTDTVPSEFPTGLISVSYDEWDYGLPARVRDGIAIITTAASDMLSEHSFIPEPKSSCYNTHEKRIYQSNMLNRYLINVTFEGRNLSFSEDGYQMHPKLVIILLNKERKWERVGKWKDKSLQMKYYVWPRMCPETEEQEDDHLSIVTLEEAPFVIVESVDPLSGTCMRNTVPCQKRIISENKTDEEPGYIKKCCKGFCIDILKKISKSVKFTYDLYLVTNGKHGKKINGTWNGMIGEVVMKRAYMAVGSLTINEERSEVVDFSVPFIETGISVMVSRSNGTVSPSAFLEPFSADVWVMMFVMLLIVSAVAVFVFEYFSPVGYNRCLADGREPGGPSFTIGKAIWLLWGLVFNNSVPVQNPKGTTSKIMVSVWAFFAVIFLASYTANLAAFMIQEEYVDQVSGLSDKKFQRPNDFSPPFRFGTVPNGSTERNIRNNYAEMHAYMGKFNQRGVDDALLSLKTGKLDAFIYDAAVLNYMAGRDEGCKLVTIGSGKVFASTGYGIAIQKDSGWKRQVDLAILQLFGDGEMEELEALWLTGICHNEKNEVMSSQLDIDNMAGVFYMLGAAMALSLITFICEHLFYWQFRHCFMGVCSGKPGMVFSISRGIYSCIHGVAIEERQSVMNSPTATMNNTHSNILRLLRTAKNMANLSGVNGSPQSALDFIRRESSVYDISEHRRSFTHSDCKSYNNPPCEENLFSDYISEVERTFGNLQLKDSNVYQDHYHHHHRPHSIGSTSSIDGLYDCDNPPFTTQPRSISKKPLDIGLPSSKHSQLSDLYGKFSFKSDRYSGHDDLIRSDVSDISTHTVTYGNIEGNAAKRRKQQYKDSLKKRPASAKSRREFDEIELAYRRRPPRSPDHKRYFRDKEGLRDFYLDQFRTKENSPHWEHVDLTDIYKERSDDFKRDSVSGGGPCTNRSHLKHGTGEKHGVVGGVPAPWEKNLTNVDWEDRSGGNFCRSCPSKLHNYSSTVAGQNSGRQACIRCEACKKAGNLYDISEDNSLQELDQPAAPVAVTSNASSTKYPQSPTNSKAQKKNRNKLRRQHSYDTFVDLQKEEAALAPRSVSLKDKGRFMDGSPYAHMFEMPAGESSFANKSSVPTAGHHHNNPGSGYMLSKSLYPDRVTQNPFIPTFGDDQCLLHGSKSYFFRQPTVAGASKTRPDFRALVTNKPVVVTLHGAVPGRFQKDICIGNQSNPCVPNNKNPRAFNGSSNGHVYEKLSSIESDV
EXPERIMENTAL ENDPOINT: pIC50
Numbers only, as −log10 of the molar value.

# COMPOUND, pIC50
measured = [
    ("Oc1ccc2c(c1)CCN(CCCCc1ccccc1)C[C@@H]2O [compound (R)-1]", 6.41),
]

Quick request: pIC50 for each listed item, please.
1. Oc1ccc2c(c1)CCN(CCCCc1ccccc1)C[C@H]2O [compound (S)-1]
2. C[C@@H]1[C@H](O)c2ccc(O)cc2CCN1CCCCc1ccccc1

Response:
[6.61, 6.89]
